// values below are reported composite z-score
Experiment: small molecules captured by biotinylated probe aFGF10 – biochemical, small-molecule microarray, fluorescence 635/667, stem cell growth factor project, primary screen (AID 1071);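 note: score merges 667 nm spot intensity and signal to noise from triplicate slides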
Conditions: higher = more signal
endpoint_name: composite z-score

COC(=O)[C@@]1(Cc2ccc(OC)cc2)[C@H]2c3cc(C(=O)N(C)C)n(CCSCCO)c3C[C@H]2CN1C(=O)c1ccccc1	0.979
NC(=O)NCC#Cc1ccc2c(c1)[C@]1(C(=O)N2)[C@H](C(=O)NC[C@H](O)c2ccccc2)[C@H]2C(=O)O[C@H](c3ccccc3)[C@H](c3ccccc3)N2[C@@H]1c1ccccc1OCCO	0.0263
COc1ccc([Si](C)(C)[C@H]2[C@H](CC(=O)N3CCC[C@H]3CO)O[C@@]3(C(=O)N(c4ccccc4)c4ccccc43)[C@@H]2C)cc1	0.134
CC(C)C(CO)N1C(=O)[C@@H]2[C@H]3C(=O)OCC=C[C@H]3OC23C=CCN(c2ccc4ccccc4c2)C(=O)[C@@H]13 (stereo not given in full)	-0.134
COC(=O)c1nc2oc1CC[C@@H](CO)NC(=O)N(C)Cc1cn(nn1)C[C@H](Cc1ccccc1)NC2=O	0.0055
OCCCc1cc[n+](Cc2cccc(OC(F)(F)F)c2)cc1	-0.389
CCCNC(=O)[C@@]1(c2ccc([N+](=O)[O-])cc2)CC(=O)N(CC23CC4CC(CC(C4)C2)C3)[C@@H]1c1ccc(CO)cc1I	0.0889
CCCNC(=O)[C@@]1(C)c2ccccc2C(=O)N(Cc2cc(C(F)(F)F)cc(C(F)(F)F)c2)[C@H]1c1ccc(CO)cc1	0.108
COCCOC(=O)N1C(=O)[C@@]2(c3cc(C#CC4=CCCCC4)ccc31)[C@H](C(=O)N1CCN(c3ncccn3)CC1)[C@H]1C(=O)O[C@H](c3ccccc3)[C@H](c3ccccc3)N1[C@@H]2c1ccc(OCCO)cc1	0.723
COCCOC(=O)N1C(=O)[C@@]2(c3cc(C#CCC(C(=O)OC)C(=O)OC)ccc31)[C@H](c1ccccc1OCCO)N1[C@H](c3ccccc3)[C@H](c3ccccc3)OC(=O)[C@H]1[C@@H]2C(=O)Nc1nc2ccccc2s1	1.19
C[C@]1(C(=O)NCC(F)(F)F)c2ccccc2C(=O)N(Cc2cc(F)cc(C(F)(F)F)c2)[C@H]1c1ccc(CO)cc1	0.0438
COc1ccc([Si](C)(C)[C@@H]2[C@@H](CCO)O[C@]3(C(=O)N(Cc4ccc(N5C(=O)c6cccc7cccc5c67)cc4)c4ccccc43)[C@H]2C)cc1	-0.383
C#C[C@H]1Oc2ccccc2S(=O)(=O)N2CCC[C@@H]12	-0.223
CO[C@H]1O[C@H](CO)[C@@H](OC(=O)Nc2ccc3c(c2)OCO3)[C@H](OC(=O)Nc2ccc3c(c2)OCO3)[C@H]1OC(=O)Nc1ccc2c(c1)OCO2	0.844
COc1ccccc1CN1C(=O)c2ccccc2[C@](Cc2ccccc2I)(C(=O)NC2CC2)[C@@H]1c1ccc(CO)cc1	0.531
COc1ccc([Si](C)(C)[C@@H]2[C@@H](CCO)O[C@]3(C(=O)N(Cc4cccc(N5CCCCC5=O)c4)c4ccccc43)[C@H]2C)cc1	0.877
[N-]=[N+]=NCc1ccccc1C[C@]1(C(=O)NCC(O)CO)COC(c2ccc(OCCCO)cc2)=N1 (stereo not given in full)	-0.329
[N-]=[N+]=NCc1ccccc1[C@@H]1OC(c2ccc(OCCCO)cc2)=N[C@]1(Cc1ccccc1N=[N+]=[N-])C(N)=O	0.385
CC[C@@H]1C=C(C(=O)O)[C@H](c2ccc(C(C)C)cc2)N1S(=O)(=O)c1ccc(C)cc1	1.12
C=C(CCCC)C(=O)CC[C@H](OC(C)=O)c1ccc(CO)o1	-0.0414
Cc1ccc(F)cc1S(=O)(=O)N[C@@H]1CCN(Cc2ccc(C(F)(F)F)cc2)C1	-1.06
O=c1cccc(-c2cccc3ccccc23)o1	-0.413
CN1C(=O)C2C=CC(C(O)C(c3ccccc3)c3ccccc3)N(Nc3ccccc3)C2C1=O (stereo not given)	0.868
CC1CC/C=C\[C@H]2OC34C=CCN(Cn5nnc6ccccc65)C(=O)[C@H]3N(CCCO)C(=O)[C@@H]4C2C(=O)O1 (stereo not given in full)	-0.988
C=C(C(=O)CC[C@H](OC(=O)c1cccnc1)c1ccccc1OCCO)C(C)C	0.636
Cc1cccc(/C=C/C=O)c1	0.0071
COc1ccc(C#Cc2ccc3c(c2)[C@]2(C(=O)N3)[C@H](c3ccc(OCCO)cc3)N3[C@H](c4ccccc4)[C@H](c4ccccc4)OC(=O)[C@H]3[C@@H]2C(=O)Nc2nc3ccccc3s2)cc1	0.71
COCC1=C([C@H](O)CCc2ccccc2)[C@H](CO)[C@@H]2C(=O)N(Cc3ccccc3)C(=O)[C@@H]2C1	0.085
CC1CC/C=C\[C@H]2OC34C=CCN(CCN5CCOCC5)C(=O)[C@H]3N(CCCCCO)C(=O)[C@@H]4C2C(=O)O1 (stereo not given in full)	-1.05
O[C@@H](Cc1ccccc1)[C@@H](/C=C/c1ccccc1)NCc1ccccc1Br	-1.09
